details: buffer; pH 7.4; 200.0 µM
Entries and their measured solubility kinetic follow.

As a guide, the following entries are already answered.
Cc1ccc(C(=O)N2CCN(C(=O)C3CCCO3)CC2)cc1 (stereo unspecified) = > 45.4 µg/mL
CC(C)(C)C1CCC(=NNC(=O)C(=O)NCc2cccnc2)CC1 (stereo unspecified) = > 49.6 µg/mL
CC1CN(C(=O)COC(=O)c2ccc(Cl)c(N)c2)CC(C)O1 (stereo unspecified) = > 49 µg/mL
CCc1ccc(C(=O)COC(=O)C2=NN(c3ccccc3)C(=O)CC2)cc1 = > 54.7 µg/mL
CC1CCN(S(=O)(=O)c2cnc[nH]2)CC1 = > 34.4 µg/mL

Query: Need solubility kinetic, item `CC(C)(C)n1cnc2cc(NC(=O)c3ccccc3)ccc21`
Reply: > 44 µg/mL

----------
conditions: buffer; pH 7.4; 200.0 µM
Kindly return yes if reported solubility kinetic is no lower than 3 µg/mL; return no if it is lower.

CC(C)(C)CNc1cc(N2CCOCC2)ccc1[N+](=O)[O-] = no
CC(=O)c1cccc(NC(=S)N2CCc3ccccc32)c1 = yes
CN1C(=O)/C(=C/c2ccc(OCc3ccc(F)cc3)cc2)N(C)C1=S = no
CCN(CCS(=O)(=O)c1ccc(Cl)cc1)Cc1nc2ccccc2c(=O)[nH]1 = yes
O=S(=O)(Nc1cc(Cl)cc(Cl)c1)N1CCOCC1 = yes
O=C(Nc1ccc(OC(F)F)c(Cl)c1)c1ccccn1 = no

Then there is this molecule:
Query: Determine whether this molecule has solubility kinetic no lower than 3 µg/mL: `COc1ccc2c(c1)C(=O)Nc1cc(Cl)ccc1N2`
Reply: yes

----------
conditions: buffer; pH 7.4; 200.0 µM
Property Measured: solubility kinetic

As a guide, the following entries are already answered.
CC1(C2CC2)NC(=O)N(CC(=O)NCC(=O)Nc2ccc(F)c(F)c2F)C1=O (stereo unspecified) = > 59.8 µg/mL
Nc1ncnc(NC2CCS(=O)(=O)C2)c1[N+](=O)[O-] (stereo unspecified) = > 41 µg/mL
O=C(CCl)Nc1c[nH]c(=O)[nH]c1=O = > 30.5 µg/mL
O=C(O)C(=O)O.c1ccc(OCCN2CCOCC2)cc1 = > 44.6 µg/mL
Cc1nc2ccc(NC(=O)[C@H](C)N3C(=O)C4CC=CCC4C3=O)cc2s1 (stereo partly specified) = > 55.4 µg/mL

Query: Need solubility kinetic, item `N#Cc1c(-c2ccccc2)cc(-c2ccc(O)cc2)nc1N`
Reply: < 0.2 µg/mL

Query: Need solubility kinetic, item `CSCC[C@H](NC(=O)Nc1ccccc1C)C(=O)O`
Reply: > 42.4 µg/mL

Query: Need solubility kinetic, item CC(C#N)Sc1nnc(-c2ccccc2F)n1C1CC1 (stereo unspecified)
Reply: > 43.3 µg/mL

----------
Entries and their measured solubility kinetic follow.
details: buffer; pH 7.4; 200.0 µM

NC(=O)C[n+]1cccc(/C=N/O)c1.[Cl-] = > 32.3 µg/mL
Cc1cc(C(F)F)nn1CC(=O)NC1CCCC1 = > 38.6 µg/mL
CCOc1ccccc1NC(=O)COC(=O)c1nc2nccc(C)n2n1 = > 53.3 µg/mL
CC(Sc1ncccn1)C(=O)Nc1ccc2c(c1)OCCO2 (configuration not stated) = > 47.6 µg/mL
O=C(N/C(=C/c1ccco1)C(=O)N1CCOCC1)c1cccs1 = > 49.9 µg/mL

Query: Need solubility kinetic, item `CCCNC(=O)c1ccc(COc2ccc(CCC)cc2OC)o1`
Reply: > 49.7 µg/mL

Query: Need solubility kinetic, item `CCSCc1nnc(SCC(=O)Nc2nccs2)n1CC`
Reply: > 51.5 µg/mL

Query: Need solubility kinetic, item `Cl.N=C(c1ccc([N+](=O)[O-])cc1)N1CCCCCC1`
Reply: > 42.6 µg/mL

Query: Need solubility kinetic, item `Cc1ccccc1N=C1NC(=O)C(CO)(CO)S1`
Reply: > 39.9 µg/mL

Query: Need solubility kinetic, item `COc1cc(NC(=O)CCc2c(C)noc2C)c(Cl)cc1C(=O)O`
Reply: > 52.9 µg/mL

Query: Need solubility kinetic, item COc1ccccc1CNS(=O)(=O)c1cc(C(=O)NCC2CCCO2)c(Cl)cc1Cl (configuration not stated)
Reply: > 71 µg/mL

Query: Need solubility kinetic, item Cc1ccc(C(=O)NCC(=O)OC(C)C(=O)Nc2ccccc2[N+](=O)[O-])s1 (configuration not stated)
Reply: > 58.7 µg/mL

The reported numbers originate from PubChem BioAssay AID1996.
